Data provenance: paper PMC9482650

- tested on: T1, RHPN1, Q8TCX5
- T1 sequence (Q8TCX5 508-602, limits assumed, looked up): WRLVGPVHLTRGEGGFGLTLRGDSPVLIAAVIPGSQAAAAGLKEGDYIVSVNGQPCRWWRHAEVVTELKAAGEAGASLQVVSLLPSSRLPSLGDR
- run description: holdup assay
- Set-up: key: below the threshold = too weak to quantify, mostly under pKd 3.1 to 4
- condition context: plain residues with an end cap or a label only (N-terminal biotin on a linker: ado-ado)
Could you please report measured pKd for the items listed next?
Answers are plain numbers.

[
  {
    "binder": "LKDDELKTKL [SLCO1A2, P46721]",
    "pKd": 3.82
  }
]

Take each entry in turn and give its pKd.
1. VLYPREGTEV [FOXI1, Q12951]
2. PPGKHLVTEV [KCNA7, Q96RP8]
3. APIAGFSSFV [SDK2, Q58EX2]

(A)
1. 3.95
2. 4.37
3. 4.76

Take each entry in turn and give its pKd.
1. TISFTQTSQF [SLC1A1, P43005]
2. TGLWKHETTV [ADGRA3, Q8IWK6]

(A)
1. 3.73
2. 4.44
